System: Haemonchus contortus
experimental.details: In vivo nematode test, Haemonchus contortus / sheep (faecal egg count before and after treatment)
condition.context: experimentally infected sheep (Schaf), treated after the prepatent period, pure active substance in gelatin capsules, oral, dose giving complete cessation of egg excretion, read-out: Dosis effectiva
Description: Haemonchus contortus / Schaf Experimentell mit Haemonchus contortus infizierte Schafe wurden nach Ablauf der Präpatenzzeit des Parasiten behandelt. Die Wirkstoffe wurden als reiner Wirkstoff in Gelatinekapseln oral appliziert. Der Wirkungsgrad wird dadurch bestimmt, daß man die mit dem Kot ausgeschiedenen Wurmeier vor und nach der Behandlung quantitativ auszählt. […]
property.label: minimal effective dose (mg/kg)

Cc1ccc(NC(=O)c2c(-c3c(Cl)cccc3Cl)noc2C)cc1 [Beispiel 119] | 5
Cc1ccccc1NC(=O)c1c(-c2c(Cl)cccc2Cl)noc1C [Beispiel 116] | 10
Cc1ccccc1NC(=O)c1c(-c2c(F)cccc2Cl)noc1C [Beispiel 221] | 5
CCc1onc(-c2c(Cl)cccc2Cl)c1C(=O)Nc1ccc(SC(F)(F)F)cc1 [Beispiel 127] | 10
CCCCCCCCCCCCCCCCCCNC(=O)c1c(-c2c(Cl)cccc2Cl)noc1CC [Beispiel 1] | 5
Cc1onc(-c2c(Cl)cccc2Cl)c1C(=O)Nc1cc(F)cc(F)c1 [Beispiel 103] | 10
Cc1onc(-c2c(F)cccc2Cl)c1C(=O)Nc1ccc(Cl)cc1F [Beispiel 230] | 10
Cc1ccc(OC(=O)c2c(-c3c(Cl)cccc3Cl)noc2C)cc1 [Beispiel 59] | 10
CCCCCCCCCCCCCCCCCCNC(=O)c1c(-c2c(Cl)cccc2Cl)noc1C [Beispiel 83] | 10
Cc1onc(-c2c(Cl)cccc2Cl)c1C(=O)Oc1ccc(Cl)cc1 [Beispiel 62] | 10
